- Tested on: Herpes virus
- method.description: Herpes virus in chicken eggs, single dose 24 hours pre-infection
- Format: in vivo, chick embryo
- condition.details: 20 μg
readout.name: No. living longer than controls
Give bare numbers.

Below, each entry is followed by its recorded No. living longer than controls result.
### Prompt Report No. living longer than controls for NNC(N)=S [Thiosemicarbazide, thiosemicarbazide] please.
### Response 0

### Prompt Ok, now NNC(N)=O [semicarbazide]
### Response 1

### Prompt Ok, now CCC(C)=NNC(N)=S
### Response 4

New cases:
### Prompt Report No. living longer than controls for NN [hydrazine] please.
### Response 1

----------
- Test system: Herpes virus
- method.description: Herpes virus in chicken eggs, single dose 24 hours pre-infection
- Type: in vivo, chick embryo
- condition.details: .05 μg
Exercise: for every item that follows, state its recorded Deaths on day 3.
Give bare numbers.

Below, each entry is followed by its recorded Deaths on day 3 result.
### Prompt Report Deaths on day 3 for CCC(C)=NNC(N)=S please.
### Response 3

### Prompt Ok, now NNC(N)=S [Thiosemicarbazide, thiosemicarbazide]
### Response 5

### Prompt Ok, now NN [hydrazine]
### Response 3

Shifting focus to the molecule that follows.
### Prompt Report Deaths on day 3 for NNC(N)=O [semicarbazide] please.
### Response 6

----------
- System: Herpes virus
- condition.details: total dose .05 μg
readout.name: Survivors

Below, each entry is followed by its recorded Survivors result.
### Prompt Report Survivors for NN.O=S(=O)(O)O [Hydrazine Sulfate, hydrazine sulfate] please.
### Response 0

### Prompt Ok, now CCC(C)=NNC(N)=S
### Response 0

### Prompt Ok, now NNC(=O)c1ccncc1 [Isoniazid, isoniazid, reference compound]
### Response 1

Shifting focus to the molecule that follows.
### Prompt Report Survivors for CN1C(=O)/C(=N\NC(N)=S)c2ccccc21 [Methisazone, reference compound] please.
### Response 0

----------
- Test system: Vaccinia IHD virus
- Type: in vivo, mouse
- condition.details: 10 [μg], day 12
Counter-ions that a name gives are not always drawn.
readout.name: Statistical Significance of Tail Lesions

Below, each entry is followed by its recorded Statistical Significance of Tail Lesions result.
### Prompt Requested read-out Statistical Significance of Tail Lesions, target or system Vaccinia IHD virus, entry NNC(N)=O [semicarbazide, hydrochloride]
### Response < .01

### Prompt Ok, now CCC(C)=NNC(N)=S [2-Butanone, thiosemicarbazone, 2-butanone, thiosemicarbazone]
### Response < .05

### Prompt Ok, now NNC(N)=S [Thiosemicarbazide, thiosemicarbazide]
### Response < .01

Shifting focus to the compound that follows.
### Prompt Requested read-out Statistical Significance of Tail Lesions, target or system Vaccinia IHD virus, entry NN [hydrazine]
### Response < .01

----------
Exercise: for every item that follows, state its recorded Survivors.
- Tested on: Influenza B Massachusetts virus
- method.description: Influenza B Mass. in mice, oral; late read day 5 (Table 39), 7 (Table 40), 11 (Tables 61, 65); control fraction 16/20 (Table 61), else 100%
- Assay type: in vivo, mouse
- condition.details: total dose .005 μg (5 ng)

Below, each entry is followed by its recorded Survivors result.
### Prompt Report Survivors for NC(=S)NN=C1CCCCC1 please.
### Response 2

### Prompt Ok, now NNC(=O)c1ccncc1 [Isoniazid, isoniazid, reference compound]
### Response 0

### Prompt Ok, now NNC(N)=O [semicarbazide]
### Response 0

New cases:
### Prompt Report Survivors for N#CCC(=O)NN [Cyonacetic Acid Carbazide, Cyanoacetic Acid Hydrazide] please.
### Response 1

----------
- Tested on: Influenza B Massachusetts virus
- method.description: Influenza B Mass. in mice, oral; late read day 5 (Table 39), 7 (Table 40), 11 (Tables 61, 65); control fraction 16/20 (Table 61), else 100%
- Format: in vivo, mouse
- condition.details: total dose .05 μg (50 ng)
- Experimental: A portion of a commercially available sample of amantadine was recrystallized from isopropanol. The activity of the material against Influenza B Mass. was tested for the sample as obtained, the recrystallized portion, and the mother liquor obtained from recrystallizing the portion.
Exercise: for every item that follows, state its recorded No. animals surviving when 100% (Table 61: 16/20) of controls are dead.

Below, each entry is followed by its recorded No. animals surviving when 100% (Table 61: 16/20) of controls are dead result.
### Prompt Requested read-out No. animals surviving when 100% (Table 61: 16/20) of controls are dead, target or system Influenza B Massachusetts virus, entry N#CCC(=O)NN [Cyonacetic Acid Carbazide, Cyanoacetic Acid Hydrazide]
### Response 4

### Prompt Ok, now NNC(=O)c1ccncc1 [Isoniazid, isoniazid, reference compound]
### Response 1

### Prompt Ok, now NC(=S)NN=C1CCCCC1
### Response 7

Shifting focus to the compound that follows.
### Prompt Requested read-out No. animals surviving when 100% (Table 61: 16/20) of controls are dead, target or system Influenza B Massachusetts virus, entry NNC(N)=O [semicarbazide]
### Response 1

----------
- Test system: Influenza B Massachusetts virus
- method.description: Influenza B Mass. in mice, oral; late read day 5 (Table 39), 7 (Table 40), 11 (Tables 61, 65); control fraction 16/20 (Table 61), else 100%
- Format: in vivo, mouse
- condition.details: total dose .0005 μg (500 pg)
readout.name: Survivors
Numbers only.

Below, each entry is followed by its recorded Survivors result.
### Prompt Report Survivors for NC(=S)NN=C1CCCCC1 please.
### Response 2

### Prompt Ok, now N#CCC(=O)NN [Cyonacetic Acid Carbazide, Cyanoacetic Acid Hydrazide]
### Response 5

### Prompt Ok, now NNC(=O)c1ccncc1 [Isoniazid, isoniazid, reference compound]
### Response 0

New cases:
### Prompt Report Survivors for NNC(N)=O [semicarbazide] please.
### Response 0

----------
Exercise: for every item that follows, state its recorded No. animals surviving after 5-7 days.
- Tested on: Influenza, Ann Arbor virus
- method.description: Influenza Ann Arbor in mice, oral; schedule by table; late read day 5 (Tables 15, 25, 29, 30), 6 (18, 20, 22, 23, 26, 27, 28, 54), 7 (14, 19, 21, 24, 53, 56), 8 (16, 17, 51), 9 (11, 55)
- Type: in vivo, mouse
- condition.details: total dose 30 μg
Counter-ions that a name gives are not always drawn.
Give bare numbers.

Below, each entry is followed by its recorded No. animals surviving after 5-7 days result.
### Prompt Report No. animals surviving after 5-7 days for CN(C)N [1,1-dimethylhydrazine] please.
### Response 1

### Prompt Ok, now NC(N)=S
### Response 3

### Prompt Ok, now CC(C)=NNC(N)=S
### Response 2

For each entry beneath this line, provide reported No. animals surviving after 5-7 days.
1. CCC(C)=NNC(=N)N.O=[N+]([O-])O [1-(sec-butylideneamino)guanidine nitrate]
2. CCOC(=O)CC(C)=NNC(N)=S
3. C=CCNC(=S)NN=C1Cc2ccccc2C1
4. N=C(N)NN
5. CCC(CC)=NNC(N)=S
6. CNNC [1,2-dimethylhydrazine, dihydrochloride]

### Response
[2, 8, 6, 8, 7, 4]

----------
- Test system: Herpes virus
- method.description: Herpes virus in chicken eggs, single dose 24 hours pre-infection
- Format: in vivo, chick embryo
- condition.details: all doses
readout.name: Total no. living longer than controls

Below, each entry is followed by its recorded Total no. living longer than controls result.
### Prompt Report Total no. living longer than controls for CCC(C)=NNC(N)=S please.
### Response 12

### Prompt Ok, now NNC(N)=S [Thiosemicarbazide, thiosemicarbazide]
### Response 7

### Prompt Ok, now NNC(N)=O [semicarbazide]
### Response 10

Shifting focus to the compound that follows.
### Prompt Report Total no. living longer than controls for NN [hydrazine] please.
### Response 3

----------
- System: Influenza, Ann Arbor virus
- method.description: Influenza Ann Arbor in mice, oral; schedule by table; late read day 5 (Tables 15, 25, 29, 30), 6 (18, 20, 22, 23, 26, 27, 28, 54), 7 (14, 19, 21, 24, 53, 56), 8 (16, 17, 51), 9 (11, 55)
- Format: in vivo, mouse
- condition.details: total dose 3 ng
Where a name gives a salt, the structure may show the parent alone.
Exercise: for every item that follows, state its recorded No. animals surviving after 5-7 days.

### Prompt Report No. animals surviving after 5-7 days for NC(=S)NN=C1Cc2ccccc2C1 please.
### Response 5

### Prompt Ok, now CC(C)=NNC(N)=S
### Response 2

### Prompt Ok, now CN(C)N [1,1-dimethylhydrazine]
### Response 3

### Prompt Ok, now CCC(CC)=NNC(N)=S
### Response 3

### Prompt Ok, now CNN [Methylhydrazine, methylhydrazine]
### Response 3

For each entry beneath this line, provide reported No. animals surviving after 5-7 days.
1. CCCC(C)=NNC(N)=S
2. CNNC [1,2-dimethylhydrazine, dihydrochloride]
3. NC(N)=NN=Cc1c(Cl)cccc1Cl
4. C=CCNC(=S)NN=C1Cc2ccccc2C1
5. CCOC(=O)CC(C)=NNC(N)=S
6. Cc1ccccc1NC(=S)NN=C1CCCC1
7. CCC(C)=NNC(=N)N.O=[N+]([O-])O [1-(sec-butylideneamino)guanidine nitrate]
8. NC(N)=S

### Response
1: 2; 2: 3; 3: 4; 4: 4; 5: 5; 6: 9; 7: 0; 8: 3
